Tested on: HepG2 (hepatoblastoma, liver)
experimental-protocol: alamarBlue anti-proliferation assay, Liver HepG2
Type: cell-based, human
recorded-conditions: HepG2, 72 hour, semi-quantitative; read-out: Estimated cIC50 (footnote c: LC50, 50% Lethal Concentration)
Experimental: The growth effects of compound 29 was tested on 8 different human tumour cell lines. Changes in cell proliferation based on the ability of viable cells to cause alamar Blue to change from its oxidized (non-fluorescent, blue) to a reduced (fluorescent, red) form were evaluated. With the results obtained from the alamarBlue reaction, cell proliferation was quantified and metabolic activity of viable cells examined. […]
measured-attribute: LC50 (50% lethal concentration) (µM)
A number alone suffices; assume µM.

Complete the entry with LC50 (50% lethal concentration) for CCn1c2ccccc2c2cc(C3=NCCc4c3[nH]c3ccccc43)ccc21
12.5
